Cited source: patent US20010044445A1

assay readout: melting point

Would you please look over these solved cases?
>>> reported_result("O=C(/C=C/c1cccs1)Nc1ccc(-n2nc(C(F)(F)F)cc2C(F)(F)F)cc1")
"216 to 218 °C"
>>> reported_result("O=C(O)c1cccc(C(=O)Nc2ccc(-n3nc(C(F)(F)F)cc3C(F)(F)F)cc2)c1")
"244 to 245 °C"
>>> reported_result("O=C(Nc1ccc(-n2nc(C(F)(F)F)cc2Cl)cc1)c1ccncc1Cl")
"184 to 185 °C"

IN: Quick one: melting point for CC1(C(=O)Nc2ccc(-n3nc(C(F)(F)F)cc3C(F)(F)F)cc2)CC1(Cl)Cl (stereo not drawn) ?
OUT: 143 to 145 °C

IN: Also, `O=C(Nc1ccc(-n2nc(C(F)(F)F)cc2C(F)(F)F)cc1)c1ccc(Cl)cc1[N+](=O)[O-]` please.
OUT: 163 to 166 °C

IN: Also, `CC#CC(=O)Nc1ccc(-n2nc(C(F)(F)F)cc2C(F)(F)F)cc1` please.
OUT: 220 to 221 °C
